# system.under.test: holo Alexa-CaM (Homo sapiens, UniProt P0DP23, T111W/T35C)
# run.description: Apparent Kd calculated as koff/kon
# Type: binding
Ends that are not written are not given here.
measured.attribute: Kd (nM)
Return type: number; implicit unit nM.

Input line: Which Kd value is on record for RRAIGFKKLAEAVKFSAKLMGGAM [nNOS726–749] ?
Output line: 5.6
